Values were extracted from the Human Domainome abundance scans (Beltran et al. 2025).

B1: Formin-binding protein 4, residues 593 to 636; numbered along this chain, Q8N3X1 (parent)
chain: EINATPKGWSCHWDRDHRRYFYVNEQSGESQWEFPDGEEEEEES

Variants of: B1
protocol description: abundance fitness (aPCA) (normalised: wild type 0, dead -1); higher = more abundant; growth selection in yeast, the domain comes from the species named
measurement setup: Homo sapiens
Consider the following variants and their measured abundance fitness readings.

Worked cases, abundance fitness given:
- sequence content: "EINATPKGWSCHWDRDHHRYFYVNEQSGESQWEFPDGEEEEEES [R18H]"
  result: -0.11
- sequence content: "EINATPKGWSCHWDRDHRRYFYVNEQSGESQWEFPDGEIEEEES [E39I]"
  result: -0.074
- sequence content: "EINATPKGWSCHWDRKHRRYFYVNEQSGESQWEFPDGEEEEEES [D16K]"
  result: -0.169

Return abundance fitness for the following variant: EINATPKGWSCHWDRDHRRYFYVNEQSGESQWNFPDGEEEEEES [E33N]
0.031
